Tested on: HTT mRNA
Assay: Splicing RT-qPCR assay (THP), Table 2A
Assay type: cell-based
Conditions: Table 2A (THP), CJ mRNA decrease, read-out: HTT CJ (decrease in canonical junction mRNA, IC50)
Counter-ions that a name gives are not always drawn.
The following compounds are shown together with reported IC50 values.

# example entries with known answers
>  <compound>
COc1c(NC(=O)c2c(F)cc(N3CCC(NC4CC4)CC3)c3cn(C)nc23)ccn2nc(C)cc12 [Compound 447, trifluoroacetate]

>  <assay.endpoint>
IC50

>  <reported.result>
> 10 µM

$$$$
>  <compound>
COc1cc2nn(C)cc2cc1NC(=O)c1ccc(N2CC3(CNCCO3)C2)c2cn(C)nc12 [Compound 508]

>  <assay.endpoint>
IC50

>  <reported.result>
> 10 µM

$$$$
>  <compound>
COc1cc2nn(C)cc2cc1NC(=O)c1c(F)cc(NCC2CCNCC2)c2cn(C)nc12 [Compound 454]

>  <assay.endpoint>
IC50

>  <reported.result>
> 10 µM

$$$$
>  <compound>
CCNC1CCN(c2ccc(C(=O)Nc3cc(C)c4nc(C)cn4n3)c3nn(C)cc23)CC1 [Compound 186]

>  <assay.endpoint>
IC50

>  <reported.result>
0.1 to 1 µM

$$$$
>  <compound>
C=CCNC1CCN(c2ccc(C(=O)Nc3cn4cc(C)nc(C)c4c3OC)c3nn(C)cc23)CC1 [Compound 458]

>  <assay.endpoint>
IC50

>  <reported.result>
1 to 10 µM

$$$$
>  <compound>
Cc1nc(CNS(C)(=O)=O)cn2cc(NC(=O)c3c(F)cc(N4CCC(NC5CC5)CC4)c4cn(C)nc34)nc12 [Compound 416]

>  <assay.endpoint>
IC50

>  <reported.result>
> 10 µM

$$$$
>  <compound>
COCCN[C@@H]1CCN(c2cc(O)c(C(=O)Nc3cc(F)c4nc(C)cn4c3)c3nn(C)cc23)C1 [Compound 285]

>  <assay.endpoint>
IC50

>  <reported.result>
> 10 µM

$$$$
>  <compound>
CCNC1CCN(c2cc(F)c(C(=O)Nc3cn4cc(CC5CC5)nc4c(F)c3OC)c3nn(C)cc23)CC1 [Compound 336]

>  <assay.endpoint>
IC50

>  <reported.result>
> 10 µM

$$$$
>  <compound>
Cc1cn2cc(NC(=O)c3ccc(N4CCNC(C)CC4)c4cn(C)nc34)nc2c(C)n1 (stereo not drawn) [Compound 535]

>  <assay.endpoint>
IC50

>  <reported.result>
1 to 10 µM

$$$$
>  <compound>
COc1cc2nn(C)cc2cc1NC(=O)c1ccc(N2CCC(N3CCNCC3)C2)c2cn(C)nc12 (stereo not drawn) [Compound 539]

>  <assay.endpoint>
IC50

>  <reported.result>
> 10 µM

$$$$

Summary for this compound, Cc1cn2cc(NC(=O)c3c(C)cc(N4CCC(NC5CC5)CC4)c4cn(C)nc34)nc2c(C)n1 [Compound 473] : IC50 is > 10 µM

Summary for this compound, CCNC1CCN(c2ccc(C(=O)Nc3cc(F)c4nc(CF)cn4c3)c3nn(C)cc23)CC1 [Compound 202] : IC50 is 1 to 10 µM

Summary for this compound, CCNC1CCN(c2ccc(C(=O)Nc3cc(C(=O)O)c4nc(C)cn4c3)c3nn(C)cc23)CC1 [Compound 318] : IC50 is > 10 µM

Summary for this compound, CCNC1CCN(c2cc(F)c(C(=O)Nc3cn4ccncc4n3)c3nn(C)cc23)CC1 [Compound 381] : IC50 is 1 to 10 µM

Summary for this compound, CCNC1CCN(c2ccc(C(=O)Nc3cn4cc(CC)nc(C)c4n3)c3nn(C)cc23)CC1 [Compound 311, 2,2,2-trifluoroacetate] : IC50 is > 10 µM
